Field: Log 1/C. Provide a value for each of the molecules that follow.
Test system: Escherichia coli
Experiment: Inhibition of growth of methotrexate-sensitive (MB1417) strain of Escherichia coli cells.
Format: functional
Quick one: just the number, no unit, thanks!

Please provide the recorded Log 1/C for CCCCCCCCOc1cc(Cc2cnc(N)nc2N)ccc1OC , tested on Escherichia coli.
4.91

Same again, this time with CCCCOc1ccc(Cc2cnc(N)nc2N)cc1
4.76

Try CC(=O)Nc1ccc(Cc2cnc(N)nc2N)cc1 next.
4.08

Now this one: COCc1cccc(Cc2cnc(N)nc2N)c1
4.68

Subsequent entry: COCCOc1c(OC)cc(Cc2cnc(N)nc2N)cc1OC
5.83

Ok, now CN(Cc1cnc2nc(N)nc(N)c2n1)c1ccc(C(=O)N[C@@H](CCC(=O)O)C(=O)O)cc1 [METHOTREXATE]
3.76

Similarly, Nc1ncc(Cc2ccc(Br)cc2)c(N)n1 ?
5.12

Same thing, different molecule: Cc1cccc(Cc2cnc(N)nc2N)c1
4.91

Also Nc1ncc(Cc2cccc(Cl)c2)c(N)n1 ?
4.92

Another molecule: CN(C)c1ccc(Cc2cnc(N)nc2N)cc1
4.94

Also COCCOc1ccc(Cc2cnc(N)nc2N)cc1 , if possible.
4.61

Let us now turn to CCCCCCCOc1cccc(Cc2cnc(N)nc2N)c1
4.88

What would you report for CCCCCCCCOc1c(OC)cc(Cc2cnc(N)nc2N)cc1OC ?
5.18

Cool, now C=C(C)c1c(OC)cc(Cc2cnc(N)nc2N)cc1OC
6.63

Now this one: COCCOc1cccc(Cc2cnc(N)nc2N)c1
4.33

Now give it for COc1cc(Cc2cnc(N)nc2N)cc(OC)c1SC too.
6.97

Another molecule to look at: COc1cc(Cc2cnc(N)nc2N)cc(OC)c1OC
6.61

Now give it for CC1(C)N=C(N)N=C(N)N1c1cccc(S(=O)(=O)F)c1 too.
2.5

Query Nc1ncc(Cc2ccccc2)c(N)n1 next
4.28

Query COc1cc(Cc2cnc(N)nc2N)cc(OC)c1Br next
6.67

Then what about the molecule CS(=O)(=O)Oc1cccc(Cc2cnc(N)nc2N)c1 ?
4.59

Also check COc1ccc(Cc2cnc(N)nc2N)cc1OC
6.08
